Experiment: chemical genetic growth profiling, strain panel (AID 1159580);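 also: tested at 20 µM; growth read once vehicle control cultures reached saturation at 30 °C; 1 = growth at the plate median or of vehicle wells; lower values mean less growth of the strain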
Conditions: S. cerevisiae deletion strains, growth OD, locus YCL061C, strain MRC1
About 2,000 (36%) of roughly 5,500 compounds were called active. Roughly 18% stayed inconclusive and do not appear here. Rule as the data show it: active = normalized growth mostly below about 0.91 (no sharp cut-off); inconclusive = no clear call, values can overlap the other calls; inactive = mostly above about 0.92. This is one part of the list.
API: response.call in t (active), f (inactive)

{"columns": ["COMPOUND", "CLASS_LABEL"],
 "data": [
  ["CC(=O)O.CC(=O)O.[Cd]", "t"]
]}

Okay, now this compound:
// return assay outcome for CC(=O)OCC(=O)[C@@]1(O)CCC2C3CC[C@@H]4C[C@H](O)CC[C@]4(C)C3C(=O)C[C@@]21C (some centres undefined)
f

###

Test: chemical genetic growth profiling, strain panel (AID 1159580);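 also: tested at 20 µM; growth read once vehicle control cultures reached saturation at 30 °C; 1 = growth at the plate median or of vehicle wells; lower values mean less growth of the strain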
Settings: S. cerevisiae deletion strains, growth OD, locus YPL153C, strain RAD53, hits give low values
The whole screen tested about 5,500 compounds, of which about 2,000 (36%) were called active. Roughly 18% stayed inconclusive and do not appear here. This is one part of the list.
ASSAY_ENDPOINT: normalized growth
One number for each entry.

Some entries whose results are on file:
{"columns": ["COMPOUND", "normalized growth"],
 "data": [
  ["Cc1csc2ncnc(N/N=C\\c3ccccc3Cl)c12", 0.944],
  ["N/C(CSc1ncccc1C(F)(F)F)=N/OC(=O)Nc1cccc(Cl)c1", 0.717],
  ["CC(O)(CNCc1ccc(Cl)cc1)CSc1ccccc1Cl (stereo unspecified)", 0.951]
]}

Answer for every listed entry: what is its normalized growth? The entries follow.
1. Cc1ccc(C(O)(c2ccccc2)c2ccccc2)c2ccccc12
2. N=c1ccc2nc3c(Cl)c4c(c(Cl)c3oc-2c1S(=O)(=O)O)Nc1ccc(N)c(S(=O)(=O)O)c1O4
3. N#CCC(=O)c1cccc(CSc2ccccc2Cl)c1
4. CCC(C)COC(=O)/C=C/c1ccc(N=Cc2ccc(OC)cc2)cc1 (stereo unspecified)
5. N/C(CSc1ccc(Cl)cc1)=N/OC(=O)c1ccc(C(F)(F)F)cc1
6. N#CCCCCOc1ccc2c(=O)cc(-c3ccccc3)oc2c1
7. Cc1ccc(C(=O)O/N=C(/N)CSc2ncccc2C(F)(F)F)cc1

1. 1
2. 1.01
3. 0.21
4. 0.83
5. 0.811
6. 0.953
7. 0.984

Value of measured normalized growth for the entry "O=C1Nc2ccccc2/C1=N/N=C\c1ccccc1Cl" : 0.915

###

Assay: chemical genetic growth profiling, strain panel (AID 1159580);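 also: tested at 20 µM; growth read once vehicle control cultures reached saturation at 30 °C; 1 = growth at the plate median or of vehicle wells; lower values mean less growth of the strain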
Details: S. cerevisiae deletion strains, growth OD, locus YNL207W, strain RIO2
Screen size: about 5,500 compounds; about 2,000 (36%) were called active. Not shown: some 18% with an inconclusive outcome. Cut-off read from the data, not from the text of the source: active = normalized growth mostly below about 0.91 (no sharp cut-off); inconclusive = no clear call, values can overlap the other calls; inactive = mostly above about 0.92. The list shows a part of the results.
The reply should name one outcome from true (1) (active), false (0) (inactive)

Before answering, review these 5 worked examples.
{"columns": ["COMPOUND", "CLASS_LABEL"],
 "data": [
  ["Cc1ccc2c(c1)CCCN2CC(=O)N(c1ccccc1)C1CCCCC1", "false (0)"],
  ["CC(C)CSc1nnc(CSCc2nc(-c3ccc(Cl)cc3)cs2)n1C", "false (0)"],
  ["N=c1ccc2nc3c(Cl)c4c(c(Cl)c3oc-2c1S(=O)(=O)O)Nc1ccc(N)c(S(=O)(=O)O)c1O4", "false (0)"],
  ["Cc1cc(C(=O)N(c2ccccc2)C(C)C2CC2)c(Cl)cc1Cl (configuration not stated)", "false (0)"],
  ["N/C(CSc1ccc(Cl)cc1)=N/OC(=O)c1ccc(C(F)(F)F)cc1", "true (1)"]
]}

Per the assay record, what outcome was assigned to "CCCc1cnc(N2CCN(CC(=O)N(c3ccccc3)C3CCCCC3)CC2)nc1" ?
false (0)

Tell me the recorded outcome of this test for "C#Cc1cccc(N=Cc2cc(Cl)cc(Br)c2O)c1" .
true (1)

Recorded test outcome, item "Cc1ccc(C(=O)O/N=C(/N)CSc2ncccc2C(F)(F)F)cc1"
false (0)

Can you look up the reported call for CCC(C)COC(=O)/C=C/c1ccc(N=Cc2ccc(OC)cc2)cc1 (configuration not stated) for me?
false (0)

Reference source: PubChem BioAssay AID1159580
